Tested on: RPMI-8226 leukemia
ASSAY: NCI-60 one-dose screen, 48 h
DETAILS: 10 µM unless noted
About 83,000 compounds went through this panel and 20% of them were active in at least one assay; those are over-represented in the sample as a whole. Activity calls are given as the source filed them. How the source made its calls: active means growth percent below 10; inactive means the rest.
// one of active, inactive, no free text

O=Cc1ccc([N+](=O)[O-])s1; inactive
C=CCn1cc(-c2nc3ccccc3s2)c2cc(-c3ccc4c5c(cccc35)C(=O)N(N)C4=O)ccc21; inactive
C=CCn1c(SCC(=O)Nc2ccc(C(=O)/C=C/c3ccc(Cl)cc3)cc2)nnc1-c1cc(-c2ccc(S(N)(=O)=O)cc2)nc2ccccc12; active
COc1cc(NC(C)CCCNC(C)C)c2ncccc2c1OC (stereo not given); inactive
O=C(Nc1ncc(Cc2ccc(Cl)c(C(F)(F)F)c2)s1)c1ccc2nnsc2c1; inactive

Lookup: For this molecule, state the assay outcome: CC(=O)Nc1nc2ccc(NS(=O)(=O)c3cccc4c(N(C)C)cccc34)cc2[nH]1
Found: inactive

Lookup: # outcome recorded in this test, key = CCN(C(=O)N1CCN(c2cc3c(cc2F)c(=O)c(C(=O)O)cn3C2CC2)CC1)c1nc(-c2ccc(Cl)cc2)cs1
Found: inactive

Lookup: Would you mind telling me which call this test gave CCOc1nc(-c2ccccc2)cc2c(O)c(C(=O)NN)[nH]c(=O)c12 ?
Found: inactive

Lookup: GET /call?item= O=C1/C(=C/c2ccc(Cl)cc2)COc2ccc(O)cc21 returns the recorded outcome of this test.
Found: active

Lookup: Tell me the recorded outcome of this test for Oc1c(Cl)cc(Cl)c2ccc(Cn3cc(-c4cc(C(F)(F)F)cc(C(F)(F)F)c4)nn3)nc12 .
Found: active

----------
Tested on: KM12 colon
ASSAY: NCI-60 one-dose screen, 48 h (100 = growth as untreated, 0 = no growth, -100 = all killed)
DETAILS: 10 µM unless noted
The panel holds about 83,000 compounds, 20% with a hit somewhere; the sample as a whole holds those more often.
REPORTED PROPERTY: growth (%)
# number only, unit % dropped from output

In the examples that follow, each entry is paired with its recorded growth.
O=[N+]([O-])c1ccc(N/N=C(/C(=N/Nc2ccc([N+](=O)[O-])cc2)c2ccccc2)c2ccccc2)cc1; 106
CC(C)n1cnc2c(=S)nc[nH]c21; 102
COc1ccc(Cc2cc(-c3ccccc3)nn(Cc3ccccc3)c2=O)cc1OC; 35.2
O=C1c2cccc(NCCN=Cc3cc(O)ccc3O)c2C(=O)c2c(NCCN=Cc3cc(O)ccc3O)cccc21; -71.3

Okay, next one:
Lab note: O=C(CCCCC1CCSS1)Nc1ncnc2n[nH]c(-c3ccc(Oc4ccccc4)cc3)c12 (stereo not given) gave growth of 70.5

----------
Tested on: TK-10 renal
ASSAY: NCI-60 one-dose screen, 48 h
DETAILS: 10 µM unless noted
This is part of a sample that, as a whole, favours compounds with a hit. Of some 83,000 tested, about 20% had one in any assay. Calls of active or inactive are those of the source. How the source made its calls: active means growth percent below 10; inactive means the rest.
Respond with a class label; see active, inactive

Use the examples below as a reference point.
COc1cc(CNC(=O)/C=C/C=C/c2ccc3c(c2)OCO3)ccc1OCc1cn(-c2ccc(C)c(C)c2)nn1; inactive
CC(C)c1ccc(COCc2cc(CN3CCCC3)c(O)c3ncccc23)cc1; active
CC(C)CCC[C@@H](C)[C@H]1CC[C@H]2[C@@H]3CC=C4C[C@@H](C(C(=O)O)C(=O)O)CC[C@]4(C)[C@H]3CC[C@]12C; active
CN(C)C1CCN(Cc2ccc(NC(=O)c3cncc(C#Cc4cnc(N)c5ncccc45)c3)cc2C(F)(F)F)CC1; inactive
Brc1ccc2[nH]cc(-c3nonc3-c3c[nH]c4ccccc34)c2c1; inactive

Lookup: Dear colleague, could you share the recorded outcome for COC(=O)CCC(=O)C(=O)OC when you have a moment?
Found: active

Lookup: Look up the recorded call for Cc1oc(-c2ccc(Cl)cc2)nc1/C=C/C(=O)c1ccccc1 in this test.
Found: inactive

Lookup: I'd appreciate the recorded outcome for C#COc1cccc(Nc2ncnc3ncc(NC(=O)CCl)cc23)c1 from this test.
Found: active

Lookup: Please share the test call associated with CCC(=C(c1ccc(OCCN2CCCC2)cc1)c1ccc(OCCN2CCCC2)cc1)c1ccc(Cl)cc1 .
Found: active

Lookup: Name the outcome recorded for COc1ccc(Cc2cc(-c3ccccc3)nn(Cc3ccccc3)c2=O)cc1OC in the assay.
Found: inactive

Lookup: Fill in: this test's call for O=C1Nc2ccccc2[C@]12CC(c1ccccc1)=NN2 is ___
Found: inactive

Lookup: Call for entry C1=C(N2CCCC2)CCC1 :
Found: inactive

Lookup: Given N#Cc1cnc(NCCc2ccncc2)nc1-n1cnc2ccccc21 , state the outcome it received in this test.
Found: inactive

Lookup: Short answer needed: outcome of this test for COc1ccc(NC(=O)c2sc3nc(C)c(C(=O)/C=C/c4cccc(OC)c4)cc3c2N)cc1 ?
Found: inactive

Lookup: Please share the test call associated with CCN(C(=O)N1CCN(c2cc3c(cc2F)c(=O)c(C(=O)O)cn3C2CC2)CC1)c1nc(-c2ccc(Cl)cc2)cs1 .
Found: inactive

----------
System: MCF7 breast
ASSAY: NCI-60 one-dose screen, 48 h (100 = growth as untreated, 0 = no growth, -100 = all killed)
DETAILS: 10 µM unless noted
This is part of a sample that, as a whole, favours compounds with a hit. Of some 83,000 tested, about 20% had one in any assay. Calls of active or inactive are those of the source. How the source made its calls: active means growth percent below 10; inactive means the rest.
REPORTED PROPERTY: growth

CN([O-])c1nc(N(C)[O-])nc(N2CCOCC2)n1.CN([O-])c1nc(N(C)[OH2+])nc(N2CCOCC2)n1.[Fe+3]; 90.1% [100 µM] (inactive)

Log: MCF7 breast, molecule CS(=O)(=O)c1cccc(-c2c(-c3cccc(OS(N)(=O)=O)c3)nc3sccn23)c1 , growth = 92% (inactive)

Test item CCOC(=O)c1ccc2[nH]c(O)c(C(=Nc3ccc(N(C)C(=O)CN4CCN(C)CC4)cc3)c3ccccc3)c2c1 ; MCF7 breast; reported growth was -63.9% (active)

----------
Examples of compounds with documented growth follow.
Tested on: SK-OV-3 ovarian
ASSAY: NCI-60 one-dose screen, 48 h (100 = growth as untreated, 0 = no growth, -100 = all killed)
DETAILS: 10 µM unless noted
The panel holds about 83,000 compounds, 20% with a hit somewhere; the sample as a whole holds those more often.
Give a bare numeral; the unit % is implied.

Consider the following illustrative entries.
COc1ccc(-c2csc(N(C(=O)N3CCN(c4cc5c(cc4F)c(=O)c(C(=O)O)cn5C4CC4)CC3)c3ccccc3)n2)cc1; 21.8
C[C@]12C=CC(=O)C=C1CCC1C2[C@@H](O)C[C@@]2(C)C1CC[C@]2(O)C(=O)COC(=O)CCC(=O)O (stereo partly specified); 80.2
O=C(Cn1c(=O)sc2ccccc21)NNS(=O)(=O)c1ccccc1[N+](=O)[O-]; 103
Oc1ccc(CN2CCC(N3CCCCC3)CC2)c2cccnc12; 16
CN[C@]12CC3(C=CC(=O)C=C3)O[C@@]1(Cc1ccc(OC)cc1)N(C)C(=O)N2; 85.7
O=[N+]([O-])/C(=C/C=C/c1ccccc1)c1ccccc1; 97.1
CCOC(=O)Cn1c(O)c(N=Nc2ccc(S(N)(=O)=O)cc2)c2cc(Br)ccc21; 81.9
COc1ccc2c(O)c(/C=C3\N=Nc4ncccc43)oc2c1C[C@H]1CCNC[C@H]1F; 21

Lab note: Fc1cc(F)cc(C(c2c[nH]c3ccccc23)c2c[nH]c3ccccc23)c1 gave growth of 117

GET /value?item= COc1cc(-c2nc3cc(Cl)c(Cl)cc3[nH]2)ccc1OCC(=O)N=Nc1c(O)[nH]c2ccc([N+](=O)[O-])cc12 &field=growth returns 77

Please fill in: growth reported for CCNc1cc(-c2cccc(OC(F)(F)F)c2)nc2ccc(N3CCCC3)cc12 = 17.7

# growth of O=C(Cn1c(=O)sc2nc3ccccc3nc21)Nc1ncc(Cc2cccc(Cl)c2Cl)s1 = 95.1

growth reported for this compound c1cnc2[nH]cc(-c3csc(-c4cn(CCCN5CCOCC5)c5ccccc45)n3)c2c1 : 73.4

Per the records, this compound ( C=C1C(=O)O[C@H]2[C@H]1CC/C(COC(=O)N[C@H]1C[C@H](O[C@H]3C[C@](O)(C(=O)CO)Cc4c(O)c5c(c(O)c43)C(=O)c3c(OC)cccc3C5=O)O[C@@H](C)[C@H]1O)=C\CC[C@@]1(C)O[C@@H]21 ) has growth equal to 107

Sample CC(C)OC(=O)c1ccc2[nH]c(O)c(C(=Nc3ccc(N(C)C(=O)CN4CCN(C)CC4)cc3)c3ccccc3)c2c1 ; growth observed: -81.6

CC(=O)Cc1nsc(NC(=O)c2cc(-c3cc(Cl)cc(Cl)c3)oc2C)n1 has a reported growth of 99.2

In plain terms, O=C(CI)NC1Oc2ccccc2-c2oc(=O)c(-c3ccccc3)cc21 (stereo unspecified) has a documented growth of 103

growth reported for this compound CCCCNC(=O)Oc1ccc(/C(=C(/CC)Cc2ccccc2)c2ccc(OCCN3CCCCCC3)cc2)cc1 : 82.7

// sample Fc1ccc(Nc2nc3nonc3nc2Nc2ccc(I)cc2)cc1 , its growth was -24.5

So, O=C1Nc2ccc(I)cc2C1=O ? Its growth was 108

Consider CN(C)C1CCN(Cc2ccc(NC(=O)c3cncc(C#Cc4cnc(N)c5ncccc45)c3)cc2C(F)(F)F)CC1 . Its measured growth is 103

Note to self: growth recorded for CCN(CC)CCNC(=O)c1cn2ncnc(Oc3ccc(NC(=O)Nc4ccc(Cl)c(C(F)(F)F)c4)c(F)c3)c2c1C was 82

Form field growth, entry Cc1c(-n2nnc(-c3nc4ccccc4s3)c2N)c(=O)n(-c2ccccc2)n1C : 97.8

Recorded result, O=C(CCCCC1CCSS1)Nc1ncnc2n[nH]c(-c3ccc(Oc4ccccc4)cc3)c12 (stereo unspecified) , growth: 123

Field growth (entry CCCCCC(=O)OCC(=O)O[C@@H]1C[C@]2(C(C)C)O[C@@]1(C)[C@@H]1CC[C@@H](C)[C@H]1[C@@H]2OC(=O)/C=C/c1ccccc1 ) reads 87.9
